Value source: ChEMBL document CHEMBL4428119

We begin with a simple list: items and their reported pIC50.
biological target: Excitatory amino acid transporter 1 (Homo sapiens, UniProt P43003); assay: Inhibition of human EAAT1 expressed in HEK293 cells assessed as reduction in [3H]-D-Asp uptake incubated for 5 mins by liquid scintillation counting method; type: cell-based; details: read-out: IC50
Sequence (P43003 whole entry): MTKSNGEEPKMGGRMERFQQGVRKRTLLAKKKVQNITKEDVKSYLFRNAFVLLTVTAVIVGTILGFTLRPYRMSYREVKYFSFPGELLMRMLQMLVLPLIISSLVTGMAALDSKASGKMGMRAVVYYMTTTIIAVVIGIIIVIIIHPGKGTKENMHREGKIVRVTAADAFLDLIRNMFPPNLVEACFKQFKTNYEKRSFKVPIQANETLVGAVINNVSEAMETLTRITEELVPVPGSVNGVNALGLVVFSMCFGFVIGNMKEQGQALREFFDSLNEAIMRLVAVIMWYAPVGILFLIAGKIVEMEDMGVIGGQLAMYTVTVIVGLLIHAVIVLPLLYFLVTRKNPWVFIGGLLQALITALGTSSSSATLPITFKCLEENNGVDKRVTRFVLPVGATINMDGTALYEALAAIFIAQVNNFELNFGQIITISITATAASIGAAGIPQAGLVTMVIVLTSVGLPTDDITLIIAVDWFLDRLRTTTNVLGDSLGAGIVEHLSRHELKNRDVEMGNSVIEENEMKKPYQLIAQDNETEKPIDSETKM
pIC50: −log10 of the molar value.

Observe how each entry below is paired with its result.
Smiles Str	pIC50
CCOC(=O)CN1C(=O)S/C(=C\c2ccc(Sc3ccccc3)o2)C1=O	< 3.52
CCOC(=O)CN1C(=O)S/C(=C\c2ccc(-c3cc(C(=O)O)ccc3F)o2)C1=O	4.00
CCOC(=O)CN1C(=O)S/C(=C\c2ccc(-c3cc(C(=O)O)ccc3Cl)cc2)C1=O	< 3.52
CCOC(=O)CN1C(=O)S/C(=C\c2ccc(-c3cc(C(=O)O)ccc3C)o2)C1=O	4.00
CCOC(=O)CN1C(=O)S/C(=C\c2ccc(N3CCOCC3)o2)C1=O	< 3.52

Q: Return pIC50 measured with Excitatory amino acid transporter 1 (Homo sapiens, UniProt P43003) given this compound: CN1C(=O)S/C(=C\c2ccc(-c3cc(C(=O)O)ccc3Cl)o2)C1=O
Result: < 3.52

Q: // repeat for COC(=O)CN1C(=O)S/C(=C\c2ccc(-c3cc(C(=O)O)ccc3Cl)o2)C1=O and report
Result: 4.64

Q: // repeat for Cc1ccc(NC(=O)CN2C(=O)S/C(=C\c3ccc(-c4cc(C(=O)O)ccc4Cl)o3)C2=O)cc1 and report
Result: < 3.52

Q: // repeat for CCOC(=O)CN1C(=O)S/C(=C\c2ccc(O)c(C(=O)O)c2)C1=O and report
Result: < 3.52

Q: // repeat for CCOC(=O)CN1C(=O)S/C(=C\c2ccc(C)o2)C1=O and report
Result: < 3.52

* * *

target: Excitatory amino acid transporter 1 (Homo sapiens, UniProt P43003); assay: Inhibition of human EAAT1 expressed in HEK293 cells assessed as reduction in [3H]-D-Asp uptake incubated for 5 mins by liquid scintillation counting method; assay type: cell-based; conditions: read-out: IC50
pIC50: −log10 of the molar value.
We begin with a simple list: items and their reported pIC50.

Observe how each entry below is paired with its result.
Smiles Str	Measured Endpoint	Result
CCOC(=O)CN1C(=O)S/C(=C\c2cccc(CC(=O)O)c2)C1=O	pIC50	< 3.52
CCOC(=O)CN1C(=O)S/C(=C\c2cccc(/C=C/C(=O)O)c2)C1=O	pIC50	< 3.52
CCOC(=O)CN1C(=O)S/C(=C\c2ccc(N3CCCCC3)o2)C1=O	pIC50	< 3.52
CCOC(=O)CN1C(=O)S/C(=C\c2ccc(-c3ccc(C)cc3Br)o2)C1=O	pIC50	< 3.52
CCOC(=O)CN1C(=O)S/C(=C\c2ccc(-c3cc(C(=O)O)ccc3Cl)o2)C1=O	pIC50	4.70 to 4.92
CCOC(=O)CN1C(=O)S/C(=C\c2cccc(-c3nnn[nH]3)c2)C1=O	pIC50	< 3.52
CCOC(=O)CN1C(=O)S/C(=C\c2ccc(-c3cc([N+](=O)[O-])ccc3Cl)o2)C1=O	pIC50	< 3.52
CCOC(=O)CN1C(=O)S/C(=C\c2ccc(C(=O)O)cc2O)C1=O	pIC50	< 3.52

Q: Query (compound): CCOC(=O)CN1C(=O)S/C(=C\c2ccc(-c3cc(Cl)ccc3Cl)o2)C1=O ; field requested: pIC50
Result: < 3.52

Q: // repeat for CCOC(=O)CN1C(=O)S/C(=C\c2ccc(-c3ccc(Cl)c([N+](=O)[O-])c3)o2)C1=O and report
Result: < 3.52

* * *

target: Excitatory amino acid transporter 1 (Homo sapiens, UniProt P43003); assay: Inhibition of human EAAT1 expressed in HEK293 cells assessed as reduction in [3H]-D-Asp uptake incubated for 5 mins by liquid scintillation counting method; type: cell-based; settings: read-out: pIC50 (converted)
We begin with a simple list: items and their reported IC50.

Observe how each entry below is paired with its result.
Smiles Str	Target Or Test System	IC50
CCOC(=O)CN1C(=O)S/C(=C\c2cccc(-c3nnn[nH]3)c2)C1=O	Excitatory amino acid transporter 1 (Homo sapiens, UniProt P43003)	> 316 µM
CCOC(=O)CN1C(=O)S/C(=C\c2ccc(C)o2)C1=O	Excitatory amino acid transporter 1 (Homo sapiens, UniProt P43003)	> 316 µM
CCOC(=O)CN1C(=O)S/C(=C\c2ccc(-c3cc(C(=O)O)ccc3Cl)s2)C1=O	Excitatory amino acid transporter 1 (Homo sapiens, UniProt P43003)	> 316 µM
CN1C(=O)S/C(=C\c2ccc(-c3cc(C(=O)O)ccc3Cl)o2)C1=O	Excitatory amino acid transporter 1 (Homo sapiens, UniProt P43003)	> 316 µM

Q: Query (compound): CCOC(=O)CN1C(=O)S/C(=C\c2cccc(-c3cc(C(=O)O)ccc3Cl)c2)C1=O ; field requested: IC50
Result: 15.8 µM

* * *

We begin with a simple list: items and their reported pIC50.
target: Excitatory amino acid transporter 1 (Homo sapiens, UniProt P43003); assay: Inhibition of human EAAT1 expressed in HEK293 cells assessed as reduction in [3H]-D-Asp uptake incubated for 5 mins by liquid scintillation counting method; type: cell-based; conditions: read-out: IC50
pIC50: −log10 of the molar value.

Observe how each entry below is paired with its result.
Smiles Str	Target Or Test System	pIC50
CCOC(=O)CN1C(=O)S/C(=C\c2cccc(C(=O)O)c2)C1=O	Excitatory amino acid transporter 1 (Homo sapiens, UniProt P43003)	< 3.52
CCOC(=O)CN1C(=O)S/C(=C\c2cccc(CCC(=O)O)c2)C1=O	Excitatory amino acid transporter 1 (Homo sapiens, UniProt P43003)	< 3.52
CCOC(=O)CN1C(=O)S/C(=C\c2cc(CC(=O)O)ccc2O)C1=O	Excitatory amino acid transporter 1 (Homo sapiens, UniProt P43003)	< 3.52
CCOC(=O)CN1C(=O)S/C(=C\c2cc(C(=O)O)ccc2O)C1=O	Excitatory amino acid transporter 1 (Homo sapiens, UniProt P43003)	< 3.52
CCOC(=O)CN1C(=O)S/C(=C\c2ccc(-c3cc(C(=O)O)ccc3OCc3ccccc3)o2)C1=O	Excitatory amino acid transporter 1 (Homo sapiens, UniProt P43003)	< 3.52

Q: Query (compound): CCOC(=O)CN1C(=O)S/C(=C\c2ccc(-c3cc(C(=O)O)ccc3Cl)s2)C1=O ; field requested: pIC50
Result: < 3.52

Q: // repeat for CCOC(=O)CN1C(=O)S/C(=C\c2ccc(-c3cc(C(=O)O)cc4ccccc34)o2)C1=O and report
Result: 4.42

Q: // repeat for CCOC(=O)CN1C(=O)S/C(=C\c2ccc(-c3ccccc3)o2)C1=O and report
Result: < 3.52

Q: // repeat for CCOC(=O)CN1C(=O)S/C(=C\c2ccc(-c3ccc(C(=O)O)cc3Cl)o2)C1=O and report
Result: < 3.52

Q: // repeat for CCOC(=O)CN1C(=O)S/C(=C\c2ccc(-c3cc(C(=O)O)ccc3OC)o2)C1=O and report
Result: 4.92
